Cited source: BindingDB's records for doi:10.1016/j.bmcl.2008.12.062

# protocol notes: Antagonist activity at CCR2 in human PBMCs assessed as inhibition of MCP1-induced chemotaxis
Overview of recorded IC50 for various molecules
property: IC50 (nM)

>>> print(df.to_string())
                                   molecule  property  reading_unit  result
0  COc1ccc(CNC2CC(N(C)C)CCC2NC(=O)CNC(=O)c2cccc(C(F)(F)F)c2)cc1 (racemic)      IC50            nM    41.4
1  CN(C)C1CCC(NC(=O)CNC(=O)c2cccc(C(F)(F)F)c2)C(NCc2ccc3[nH]ccc3c2)C1 (racemic)      IC50            nM      23
2  CSc1ccc(C(=O)NC2CC(N)CCC2NC(=O)CNC(=O)c2cc(C(F)(F)F)ccc2N)cc1 (racemic)      IC50            nM    13.5
3  Cc1ccc(CNC2CC(N(C)C)CCC2NC(=O)CNC(=O)c2cccc(C(F)(F)F)c2)cc1 (racemic)      IC50            nM    12.6
4  CSc1ccc(C(=O)NC2CC(NC(=O)OCc3ccccc3)CCC2NC(=O)CNC(=O)c2cccc(C(F)(F)F)c2)cc1 (racemic)      IC50            nM     5.1
5  CC(=O)Nc1ccc(CNC2CC(N(C)C)CCC2NC(=O)CNC(=O)c2cccc(C(F)(F)F)c2)cc1 (racemic)      IC50            nM    17.4
6  CSc1ccc(CNC2CC(N(C)C)CCC2NC(=O)CNC(=O)c2cccc(C(F)(F)F)c2)cc1 (racemic)      IC50            nM    22.5
